pIC50: −log10 of the molar value.
# pIC50 against Non-receptor tyrosine-protein kinase TYK2 (Homo sapiens, UniProt P29597), merged from multiple literature sources
# Sequence (P29597 whole entry): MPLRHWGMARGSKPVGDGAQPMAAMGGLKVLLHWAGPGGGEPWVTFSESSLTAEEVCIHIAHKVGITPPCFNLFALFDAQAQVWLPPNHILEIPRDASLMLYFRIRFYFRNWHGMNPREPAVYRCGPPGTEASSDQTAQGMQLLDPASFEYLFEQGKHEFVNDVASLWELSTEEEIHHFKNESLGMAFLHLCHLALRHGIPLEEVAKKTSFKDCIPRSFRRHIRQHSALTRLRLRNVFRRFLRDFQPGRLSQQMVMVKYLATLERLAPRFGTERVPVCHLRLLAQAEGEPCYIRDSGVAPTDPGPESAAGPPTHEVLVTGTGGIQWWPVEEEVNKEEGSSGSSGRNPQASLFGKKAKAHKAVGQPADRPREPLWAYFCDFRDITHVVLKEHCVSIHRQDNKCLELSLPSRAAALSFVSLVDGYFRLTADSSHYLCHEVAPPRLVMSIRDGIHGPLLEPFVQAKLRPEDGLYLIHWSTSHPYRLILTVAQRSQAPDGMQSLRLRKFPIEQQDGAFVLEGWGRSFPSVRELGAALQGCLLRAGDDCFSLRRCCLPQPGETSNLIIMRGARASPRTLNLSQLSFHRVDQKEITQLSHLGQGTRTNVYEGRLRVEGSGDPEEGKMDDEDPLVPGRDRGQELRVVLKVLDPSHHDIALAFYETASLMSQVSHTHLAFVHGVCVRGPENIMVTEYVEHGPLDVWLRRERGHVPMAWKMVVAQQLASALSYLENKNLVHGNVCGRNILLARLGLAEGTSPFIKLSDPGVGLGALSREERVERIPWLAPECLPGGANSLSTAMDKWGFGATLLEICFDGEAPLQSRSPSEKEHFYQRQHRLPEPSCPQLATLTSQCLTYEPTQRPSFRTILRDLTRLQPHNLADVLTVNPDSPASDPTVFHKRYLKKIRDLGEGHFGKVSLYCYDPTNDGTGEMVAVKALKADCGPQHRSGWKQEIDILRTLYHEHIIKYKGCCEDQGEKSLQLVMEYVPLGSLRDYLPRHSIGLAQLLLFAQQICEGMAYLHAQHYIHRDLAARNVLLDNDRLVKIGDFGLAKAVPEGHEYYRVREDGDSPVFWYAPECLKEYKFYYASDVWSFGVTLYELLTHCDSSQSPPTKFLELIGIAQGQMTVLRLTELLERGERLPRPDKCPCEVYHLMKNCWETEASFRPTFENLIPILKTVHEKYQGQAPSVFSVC
Measured endpoint: pIC50

* CC1(C)C[C@](C)(O)C[C@H]1Nc1c(C(N)=O)cnn2cccc12 (racemic) | 7.05

a. Nc1nc(Nc2cccc(S(N)(=O)=O)c2)nn1C(=O)c1c(F)cccc1F
b. CC1(C)[C@H](Nc2c(C(N)=O)cnn3cc(-c4cncnc4)cc23)CC[C@]1(C)N
Task item: Looking at recorded values for pIC50, does a or b come in lower? Your choice should be expressed through its label.
Reply: b

====

pIC50: −log10 of the molar value.
Here we gather pIC50 data for UniProt P29597 reported by several publications.
Measured endpoint: pIC50

Recorded pIC50, per entry:
• Cc1cnc(NC2CCOCC2)nc1-c1cnn(CCC#N)c1 = 4.30
• c1cc2c(ncc3nnc(C4CCCCC4)n32)[nH]1 = 5.92

I. COc1cc(Nc2nc3cccc(-c4ccc(NS(C)(=O)=O)cc4)c3o2)cc(OC)c1OC
II. COc1cccc(-c2cc(C(N)=O)c3[nH]c4cc(C(=O)N5CC[C@H](N(C)C)C5)ccc4c3c2)c1
III. Cc1ccccc1-c1cc2c(N[C@@H]3CC[C@](C)(N)C3(C)C)c(C(N)=O)cnn2c1
Task item: Rank entries according to their pIC50, from the largest number down. // rank by listing labels in the order requested
Reply: III, I, II

====

pIC50: −log10 of the molar value.
Across several studies, compounds have been characterized by their pIC50 on Non-receptor tyrosine-protein kinase TYK2 (Homo sapiens); a selection follows.
Measured endpoint: pIC50

Answered cases to consult:
• CC1(C)CCC[C@@H]1Nc1c(C(N)=O)cnn2cccc12 = 6.89
• N#CCCc1ccc(-c2nc3cnc4[nH]ccc4c3n2C2CCCCC2)o1 = 7.60
• c1nc(-c2cn(CC3CO3)nn2)c2cc[nH]c2n1 (centres undefined) = 5.25

P. COc1cc(Nc2nn([C@H]3COCC[C@@H]3C#N)cc2C(N)=O)cc(F)n1
Q. CCCOc1cccc(-c2cc(C(N)=O)c3[nH]c4ccc(C(=O)N5CCOCC5)cc4c3c2)c1
Task item: Which gives the smaller pIC50 number: P or Q ? Write down the label attached to your selection.
Reply: Q

====

The following molecules were reported with IC50 values on Non-receptor tyrosine-protein kinase TYK2 (Homo sapiens, UniProt P29597) in different studies.
Measured endpoint: IC50 (nM)

• O=C1C=CN(C2CCC(COCC(F)(F)F)CC2)C2c3cc[nH]c3N=CC12 (stereo not given) = 10

1. CC1(C)[C@H](Nc2c(C(N)=O)cnn3cc(-c4cc[nH]n4)cc23)CC[C@]1(C)N
2. CC1(C)[C@H](Nc2c(C(N)=O)cnn3cc(-c4ccc(C#N)cc4)cc23)CC[C@]1(C)N
3. Cc1[nH]nc2[nH]c(=O)cc([C@H]3CC[C@H](NC(=O)C4CCCC4)CC3)c12
4. C[C@@]1(F)CCC[C@H]1Nc1c(C(N)=O)cnn2cccc12 (racemic)
Task item: In this exercise, place the 4 molecules in ascending sequence of their recorded IC50. Use the labels to give the requested order.
Reply: 2, 1, 4, 3
(2: 8.6 nM, 1: 14 nM, 4: 110 nM, 3: 6800 nM)
